Entry source: PubChem BioAssay AID1645848

Recorded conditions: buffer; pH 7.4; 6.0 h; 150.0 µM
Measurement name: solubility kinetic

# Compound, Measurement name, Value
data = [
    ("CC(C)(O)CCc1ccc(OCc2cc(-c3cccc(OC(F)F)c3)c3ncccc3c2)cc1", "solubility kinetic", "< 1 µg/mL"),
    ("O=C(NCCCO)c1ccc(-c2ncc3cnc(-c4cccc(F)c4)cn23)cc1", "solubility kinetic", "> 86 µg/mL"),
    ("CCOC(=O)c1ccc(N2C(=O)c3[nH]nc(-c4ccc(OC)cc4)c3C2c2ccc(C)cc2)cc1 (centres undefined)", "solubility kinetic", "< 1 µg/mL"),
    ("Cc1ccc(S(=O)(=O)Nc2cnccc2C(=O)Nc2nc(-c3ccc(F)cc3)cs2)cc1", "solubility kinetic", "< 1 µg/mL"),
]

###

Recorded conditions: buffer; pH 7.4; 6.0 h; 150.0 µM
# solubility kinetic annotations

# Compound, solubility kinetic
data = [
    ("Fc1ccc(N2CCCN(CC3[C@H]4CNC[C@@H]34)CC2)cc1 (some centres not stated)", "> 43 µg/mL"),
    ("Cc1c(CN(C)c2cc(C3CC(O)C3)nc(N)n2)[nH]c2ccccc12 (configuration not stated)", "> 50 µg/mL"),
    ("Fc1ccc(-c2nc(-c3ccncc3)nc3ccccc23)cc1F", "< 1 µg/mL"),
    ("Cc1ccc(CSCc2ccc(C(=O)NC3CC3)o2)cc1", "> 44 µg/mL"),
    ("Cc1cc(C)c(C(=O)Nc2cccc([S+](=O)([O-])N3CCCCC3)c2)[nH]1", "< 1 µg/mL"),
    ("CCOc1ccc(OCC)c(NC(=O)C(NS(=O)(=O)c2ccc(Br)s2)c2ccccc2)c1 (configuration not stated)", "< 1 µg/mL"),
    ("CC1(C)CC2CC(C)(CN2S(=O)(=O)c2ccc(C(=O)Nc3cccc(S(=O)(=O)N4CCOCC4)c3)cc2)C1 (configuration not stated)", "< 1 µg/mL"),
    ("O=C(O)c1ccnc2cc(C(OCCN3CCCCC3)c3ccccc3Cl)[nH]c12 (configuration not stated)", "> 61 µg/mL"),
    ("Cc1ccc(-c2cc(C(=O)Nc3ccc(S(N)(=O)=O)cc3)c3cccc(C)c3n2)cc1C", "< 1 µg/mL"),
    ("CCOc1ccccc1C(=O)Nc1ccccc1C(=O)Nc1cccc(C(F)(F)F)c1", "< 1 µg/mL"),
    ("CC(=O)Nc1ccc(C(=O)Nc2ccccc2N)cc1", "> 40 µg/mL"),
    ("C/C(=N\\NC(N)=S)C1=CCC2C3CC[C@H]4CC(O)CC[C@]4(C)C3CC[C@]12C (some centres not stated)", "< 1 µg/mL"),
]

###

Recorded conditions: buffer; pH 7.4; 6.0 h; 150.0 µM
In this section we review reported solubility kinetic values for a set of molecules.
Measurement name: solubility kinetic

# Molecule, Measurement name, Value
records = [
    ("Cc1ccc(C2=CSC(NC(=O)CSc3nncn3C)=NN2)cc1", "solubility kinetic", "> 53 µg/mL"),
    ("CC1=C(C(=O)Nc2nc3ccccc3s2)C(c2[nH]ncc2Cl)N=C(Nc2nc3ccccc3o2)N1 (stereo not given)", "solubility kinetic", "< 1 µg/mL"),
    ("CCOc1ccc(C(C)CNC(=O)c2cc3sccc3n2Cc2ccccc2)cc1OCC (stereo not given)", "solubility kinetic", "< 1 µg/mL"),
    ("CCCOC(=O)c1ccc(Oc2c(-c3ccc(O)cc3O)n[nH]c2C)cc1", "solubility kinetic", "< 1 µg/mL"),
    ("CCN(CC)S(=O)(=O)c1ccc(N2CCCC2)c(NS(=O)(=O)c2ccccc2)c1", "solubility kinetic", "< 1 µg/mL"),
    ("COc1cccc(CNc2ccc(S(=O)(=O)Nc3ccc4ccccc4c3)cc2)c1O", "solubility kinetic", "< 1 µg/mL"),
    ("COc1cc2cc(CN3CCC(N(C)C)C3)c(-c3cccc(Cl)c3)nc2cc1OC (stereo not given)", "solubility kinetic", "> 42 µg/mL"),
    ("CC(C)c1ccc2oc3nc(N)c(C(=O)O)cc3c(=O)c2c1", "solubility kinetic", "> 44 µg/mL"),
    ("COc1cccc(-c2nc(-c3cc4cc(OC)ccc4[nH]c3=O)no2)c1", "solubility kinetic", "< 1 µg/mL"),
    ("O=[N+]([O-])c1ccc(/C=N/n2c(CO)nc3ccccc32)s1", "solubility kinetic", "< 1 µg/mL"),
]

###

Recorded conditions: buffer; pH 7.4; 6.0 h; 150.0 µM

# Molecule, solubility kinetic
rows = [
    ("CNC(=O)Cn1cc(-c2ccc3c(c2)C(F)CC32NC(=O)N(CC(=O)N(Cc3ccc(F)cc3)[C@@H](C)C(F)(F)F)C2=O)cn1 (stereo not given in full)", "22 µg/mL"),
    ("CCc1ccc(S(=O)(=O)Nc2cnccc2C(=O)Nc2nc(-c3ccccc3)cs2)cc1", "< 1 µg/mL"),
    ("CCC(CC)c1cc([C@H]2CN3CC[C@H]2C[C@@H]3CNC(C)=O)nc(-c2ccncc2)n1", "> 60 µg/mL"),
    ("CCCCCCC.CN1C(=O)CN=C(c2ccc[nH]2)c2cc(Cl)ccc21", "> 40 µg/mL"),
    ("O=C(NCc1ccco1)c1nc2nc(-c3cccs3)cc(C(F)(F)F)n2n1", "4.51 µg/mL"),
    ("CCN(CC)S(=O)(=O)c1ccc(N2CCOCC2)c(NC(=O)c2[nH]c(C)c(C(C)=O)c2C)c1", "3.85 µg/mL"),
    ("Cc1ccccc1C(=O)N1CCc2cc(-c3nc(NC(=O)Cc4ccc5ccccc5c4)sc3C)ccc21", "< 1 µg/mL"),
    ("Cc1ccccc1C(=O)N1CCc2cc(-c3cccc(NC(=O)Cc4ccc5c(c4)OCO5)c3)ccc21", "< 1 µg/mL"),
    ("CC1(C)C(=O)NC2=C1C(=O)C(=O)c1ccccc12", "> 36 µg/mL"),
    ("CCCCOc1ccc(CC(=O)NO)cc1", "13.6 µg/mL"),
    ("Cc1nnn(C)c1-c1cnc2c3ccc(C(C)(C)O)cc3n([C@H](c3ccccc3)C3CCOCC3)c2c1", "29.6 µg/mL"),
    ("CNC(=O)C1=C(C)NC(Nc2nc3ccccc3o2)=NC1c1[nH]ncc1Cl (stereo not given)", "> 57 µg/mL"),
    ("COCCNCc1ccc(-c2cc3nccc(Oc4ccc(NC(=S)NC(=O)Cc5ccc(F)cc5)cc4F)c3s2)nc1", "< 1 µg/mL"),
    ("Cc1ccc(-c2nc3ccccc3o2)cc1NC(=O)COc1ccccc1", "< 1 µg/mL"),
    ("O=C(Nc1cncc(Cc2ccccc2)c1)c1ccc(-c2cccc([N+](=O)[O-])c2)o1", "< 1 µg/mL"),
    ("Nc1nc2c(s1)C(c1ccc(F)c(F)c1)CC(=O)N2 (stereo not given)", "> 42 µg/mL"),
    ("COc1ccc(-c2cc3nccn3c(Nc3ncccc3C(N)=O)n2)cc1OC", "24.2 µg/mL"),
    ("COc1ccc(-c2[nH]nc3ncc(-c4ccc(CO)cc4)nc23)cc1F", "< 1 µg/mL"),
    ("O=C(Nc1cccc(C(F)(F)F)c1)c1ccccc1NC(=O)C1CCCCC1", "< 1 µg/mL"),
    ("COc1cccc(C(=O)Nc2ccc3c(N4CCOCC4)ncnc3c2)c1", "> 54 µg/mL"),
    ("Cc1cccc(-n2nc(C)c3c2NC(=O)CSC3c2ccccc2Cl)c1 (stereo not given)", "2.15 µg/mL"),
    ("O=[S+]([O-])(Nc1cccc2cccnc12)c1ccc(NCc2ccc(Cl)cc2O)cc1", "< 1 µg/mL"),
    ("O=C(Nc1ncc(Cc2ccc(C(F)(F)F)cc2)s1)c1cccc(-c2ccccc2)c1", "< 1 µg/mL"),
    ("Oc1ccc(-c2nc(C3CC3)nc3c2CCN(CC2CCCCC2)CC3)cc1", "11.3 µg/mL"),
    ("CCN(CC)S(=O)(=O)c1cccc(C(=O)Nc2ccc(C#N)cc2)c1", "10.2 µg/mL"),
]

###

Recorded conditions: buffer; pH 7.4; 6.0 h; 150.0 µM
Listing: solubility kinetic of selected compounds
Measurement name: solubility kinetic

# Compound, Measurement name, Value
data = [
    ("C[C@H]1CN(C(=O)Nc2ccc(F)cc2)C[C@@H]1c1nc(-c2ccccc2)no1", "solubility kinetic", "4.11 µg/mL"),
    ("Cc1ccc(S(=O)(=O)Nc2cccc(C(=O)Nc3nc(-c4ccc(Cl)cc4)cs3)c2)cc1", "solubility kinetic", "< 1 µg/mL"),
    ("NC(=O)C1CCN(c2nc(-c3ccc(F)cc3)cs2)CC1", "solubility kinetic", "> 45 µg/mL"),
    ("CCCc1ccc(C(=O)NC(=O)c2ccccc2O)cc1", "solubility kinetic", "1.6 µg/mL"),
    ("CCOC(=O)c1c(NC(=O)CN2CCCCC2)sc2c1CCN(C(=O)OCC)C2", "solubility kinetic", "27.6 µg/mL"),
    ("Cc1ccc(S(=O)(=O)Nc2ccccc2C(=O)Nc2nc(-c3ccccc3)c(Br)s2)cc1", "solubility kinetic", "< 1 µg/mL"),
    ("Cc1cc(C)nc(NC(=S)N2CCN(c3ccc(C(F)(F)F)cc3Cl)CC2)c1", "solubility kinetic", "3.08 µg/mL"),
    ("CN(C)CCNC(=O)c1nc(-c2ccccc2)cc2[nH]ccc12", "solubility kinetic", "28.3 µg/mL"),
    ("Cc1onc(-c2ccccc2)c1C(=O)Nc1nnc(COc2ccc(Cl)cc2)s1", "solubility kinetic", "< 1 µg/mL"),
    ("COc1cccc(C(=O)Nc2ccc([S+](=O)([O-])Nc3nccs3)cc2)c1O", "solubility kinetic", "2.23 µg/mL"),
    ("COC(=O)c1c(NC(=O)Cc2coc3cc(C)ccc23)sc2c1CCC2", "solubility kinetic", "< 1 µg/mL"),
    ("CCN(CC)C(=O)c1ccc2c(c1)ncn2-c1cccc(C)c1", "solubility kinetic", "> 45 µg/mL"),
    ("O=C(NC1CC1)C1CCCN1C(=O)c1cccc(-c2ccccn2)c1 (stereo unspecified)", "solubility kinetic", "> 74 µg/mL"),
    ("c1cc(OCCN2CCCCC2)cc(-c2n[nH]c3ccc(-c4ncn[nH]4)cc23)c1", "solubility kinetic", "> 38 µg/mL"),
    ("CC(=O)Nc1ccc(NC(=O)C(NS(=O)(=O)c2ccc(Br)s2)c2ccccc2)cc1 (stereo unspecified)", "solubility kinetic", "< 1 µg/mL"),
    ("Oc1ccc(C(=S)N2CCN(c3cccc(Cl)c3)CC2)cc1", "solubility kinetic", "< 1 µg/mL"),
]
